Origin of measurements: patent US20230286906A1

# Experimental Target: human CB2 receptor (Homo sapiens, UniProt P34972)
# Construct: host or cells: CHO-K1 (Chinese hamster ovary) cells, stably transfected; membranes prepared in house
# Sequence (P34972 whole entry): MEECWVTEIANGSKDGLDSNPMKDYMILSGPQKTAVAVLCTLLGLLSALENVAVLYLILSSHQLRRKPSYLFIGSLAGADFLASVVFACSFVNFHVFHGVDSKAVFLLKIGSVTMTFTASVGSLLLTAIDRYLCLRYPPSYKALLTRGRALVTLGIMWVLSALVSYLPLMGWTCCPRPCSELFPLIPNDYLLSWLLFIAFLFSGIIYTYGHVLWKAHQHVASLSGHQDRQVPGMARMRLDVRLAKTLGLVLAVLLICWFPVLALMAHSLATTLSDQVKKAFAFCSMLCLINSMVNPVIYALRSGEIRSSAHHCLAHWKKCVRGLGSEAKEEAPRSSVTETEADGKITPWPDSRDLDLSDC
# Test Name: CB2 radioligand ([3H]CP 55,940) competitive binding assay
# Run Parameters: fold difference in selectivity between CB1 and CB2 binding, shown in the column of the receptor with higher affinity
Lab note: compare Selectivity CB2 with 5, writing true if less and false if equal or more.

# TODO verify Selectivity CB2 < 5 strictly for this compound: CCCCCc1cc(O)c(C/C=C(\C)CCC=C(C)C)c(O)c1C(=O)NCc1cccnc1 [Compound 62]
true

Please do the same for CCCCCc1cc(O)c(C/C=C(\C)CCC=C(C)C)c(O)c1C(=O)NCc1ccc(F)cc1 [Compound 61] as well.
false

Please do the same for CCCCCc1cc(O)c(C/C=C(\C)CCC=C(C)C)c(O)c1C(=O)N1CCOCC1 [Compound 39] as well.
false

Please do the same for CCCCCc1cc(O)c(C/C=C(\C)CCC=C(C)C)c(O)c1C(=O)NC1CC1 [Compound 6] as well.
true

Please do the same for CCCCCc1c(CN(C)C(=O)OC)c(O)c(CC=C(C)CCC=C(C)C)c(O)c1CN(C)C(=O)OC [Compound 59] as well.
true

Please do the same for CCCCCc1cc(O)c(CC=C(C)CCC=C(C)C)c(O)c1CN(C)C(=O)OC [Compound 58] as well.
false

Please do the same for CCCCCc1cc(O)c(C/C=C(\C)CCC=C(C)C)c(O)c1C(=O)N(CC)CC [Compound 50] as well.
true

Please do the same for CCCCCc1cc(O)c(C/C=C(\C)CCC=C(C)C)c(O)c1C(=O)N1CCCC1 [Compound 41] as well.
false

Please do the same for CCCCCc1cc(O)c(C/C=C(\C)CCC=C(C)C)c(O)c1C(=O)Nc1ccc(F)cc1 [Compound 60] as well.
true
